system: HL-60; assay: NCI tumour cell line growth inhibition, 48 h
Calls of active or inactive are those of the source. Cut-off read from the data, not from the text of the source: active = GI50 up to about 1.1 µM and inactive = higher.
readout_kind: GI50

Study these solved cases before continuing.
> print(dat)
                                   molecule   experimental.value
1  NC(=O)c1c(NC=O)ncn1C1OCC(O)C(O)C1O (stereo not given)  > 100 µM (inactive)
2    O=NN1CCNC1Cc1ccccc1 (stereo not given)   37.6 µM (inactive)

Incoming: What measured GI50 goes with `Cn1c(-c2ccccc2)cc(-c2cccs2)c1-c1ccsc1` ?
Outgoing: > 100 µM (inactive)

Incoming: What measured GI50 goes with `CC1=C(C(=O)NNC(=O)C[N+](C)(C)C)CC(C(=O)NNC(=O)C[N+](C)(C)C)=C(C)N1` ?
Outgoing: 24.9 µM (inactive)

Incoming: What measured GI50 goes with `CCCCCCCCCCCCCCCCCC(=O)O[C@H](COC(=O)CCCCCCCCCCC)COC(=O)CCCCCCCCCCCCCCC` ?
Outgoing: > 100 µM (inactive)

Incoming: What measured GI50 goes with `CC[C@@H](/C=C\CCC1(C[C@@H](N)CCC=C(C)C)OCCO1)O[Si](C(C)C)(C(C)C)C(C)C` ?
Outgoing: 4.28 µM (inactive)

Incoming: What measured GI50 goes with `CC(=O)N(CCN)CCN` ?
Outgoing: > 10 µM (inactive)

====

system: RXF 393; test: NCI tumour cell line growth inhibition, 48 h
Active and inactive are the calls of the source. No stated cut-off is given here; in the data, active = GI50 up to about 1.1 µM and inactive = higher.
readout_kind: GI50

> print(dat)
                                   compound  tested.on   experimental.value
1  CCOC(=O)C(NC(=O)Nc1ccccc1F)(OC)C(F)(F)F (centres undefined)    RXF 393  > 100 µM (inactive)
2         CC1(C)CC2(CC(C)(C)N1O)NC(=O)OC2=O    RXF 393  > 100 µM (inactive)
3  CC(=O)CC(C)(C)NC(=O)[C@@]1(O)CC[C@H]2[C@@H]3CCC4=CC(=O)CC[C@@H]4[C@H]3CC[C@@]21C    RXF 393  > 100 µM (inactive)
4  N#CC(NNC(=O)c1ccccc1O)c1ccc(O)cc1 (centres undefined)    RXF 393   1.48 µM (inactive)

Incoming: What measured GI50 goes with `c1cc(NNc2cccc(-c3nnn[nH]3)c2)cc(-c2nnn[nH]2)c1` ?
Outgoing: > 100 µM (inactive)

Incoming: What measured GI50 goes with CCCCCCCCCC[C@@H](O)[C@@H]1CC[C@@H]([C@@H]2CC[C@@H]([C@@H](O)CCCCCCCCCCC(O)CC3=CC(C)OC3=O)O2)O1 (some centres undefined) ?
Outgoing: 2.69 µM (inactive)

Incoming: What measured GI50 goes with COc1ccc(C2C3CCc4ccccc4C3=NN2S(=O)(=O)c2ccc(Cl)cc2)cc1 (centres undefined) ?
Outgoing: 12.1 µM (inactive)

Incoming: What measured GI50 goes with CC(=O)[C@]1(O)Cc2c(O)c3c(c(O)c2C(OC2OC(C)C(O)C(O)C2F)C1)C(=O)c1ccccc1C3=O (some centres undefined) ?
Outgoing: 0.624 µM (active)

Incoming: What measured GI50 goes with `O=C(O)c1[nH]c2c([N+](=O)[O-])cc([N+](=O)[O-])cc2c1C(=O)O` ?
Outgoing: > 100 µM (inactive)

====

system: UO-31; experiment: NCI tumour cell line growth inhibition, 48 h
The source made the active and inactive calls. No stated cut-off is given here; in the data, active = GI50 up to about 1.1 µM and inactive = higher.
readout_kind: GI50

Study these solved cases before continuing.
compound	readout_kind	experimental_value
O=C(c1ccc([N+](=O)[O-])cc1[N+](=O)[O-])N(/N=C/C=C/c1ccccc1)c1nnc(-c2ccccc2)c(-c2ccccc2)n1	GI50	18.5 µM (inactive)
O=C1N2CCc3c([nH]c4ccccc34)C23CC2CCCC12S3 (configuration not stated)	GI50	32 µM (inactive)
Nc1nc(NCC2(CO)CC(CCc3ccccc3)C2)cc(=O)[nH]1 (configuration not stated)	GI50	18.2 µM (inactive)

Incoming: What measured GI50 goes with `c1ccc(SCCCC(Sc2ccccc2)Sc2ccccc2)cc1` ?
Outgoing: > 100 µM (inactive)

====

system: K562; test: NCI tumour cell line growth inhibition, 48 h
The source made the active and inactive calls. Rule as the data show it: active = GI50 up to about 1.1 µM and inactive = higher. *1 amine or outer side, *2 acyl side, *3 side chain or, on linkers, in order; H or OH if unused. Where a SMILES comes first, the peptide text is derived from it. The star is where a group is joined. γGlu = O=C(O)[CH](CCC(=O)[*:2])N[*:1]; NHOH = ON*
// classify into active, inactive

compound	classification
COc1ccc(Cn2c3c(cc(OS(=O)(=O)C(F)(F)F)c2=O)Cc2ccccc2-3)cc1	inactive
Cc1nc2ccccc2nc1NS(=O)(=O)c1ccc(N)cc1	inactive
COC(=O)C1CCC(=O)N1C(c1ccc(OC)cc1)c1cc(OC)c(OC)c(OC)c1 (stereo not given)	active
O[C@]12c3ccccc3C1CCCC2N1CCOCC1 (stereo not given in full)	inactive
CC1OC(OC2C(CO)OC(O[C@H]3CC[C@@]4(C)C(=CC[C@H]5[C@@H]6C[C@@H]7O[C@](O)(CC[C@@H](C)COC8OC(CO)C(O)C(O)C8O)[C@@H](C)[C@@H]7[C@@]6(C)CC[C@@H]54)C3)C(OC3OC(C)C(O)C(O)C3O)C2O)C(O)C(O)C1O (stereo not given in full)	inactive
C[n+]1cccc(/C=C/c2ccc3cccc(O)c3n2)c1	inactive

Incoming: Which result was noted for this compound in the test: NC(CCC(=O)NC(CCC(=O)NO)C(=O)NCC(=O)O)C(=O)O (stereo not given) (γGlu-Glu(NHOH)-Gly-OH; configuration not given here)
Outgoing: inactive

Incoming: Which result was noted for this compound in the test: `[O-][n+]1c(CN2CCCCC2)nc2cccc3c2c1-c1ccccc1-3`
Outgoing: inactive

Incoming: Which result was noted for this compound in the test: `Nc1nc(O)c2c(n1)NCN(c1ccc(S(N)(=O)=O)cc1)C2`
Outgoing: inactive

Incoming: Which result was noted for this compound in the test: OC(CN(CCCl)CCCl)C(O)C(O)C(O)CN(CCCl)CCCl (stereo not given)
Outgoing: inactive

====

test system: EKVX; experiment: NCI tumour cell line growth inhibition, 48 h
Active and inactive are the calls of the source. Cut-off read from the data, not from the text of the source: active = GI50 up to about 1.1 µM and inactive = higher.
The following compounds are shown together with reported GI50 values.

Study these solved cases before continuing.
> print(dat)
                                   compound  tested.on   experimental.value
1  CN(C)CCCNC(=O)c1cc(NC(=O)c2cc(NC(=O)CCCn3c4ccccc4c4ccccc43)cn2C)cn1C       EKVX   15.3 µM (inactive)
2            CCOC(=O)c1cnc(N(C)C)nc1SC(=N)N       EKVX  > 100 µM (inactive)
3          CC(C)=C1C(=O)c2c(Cl)sc(Cl)c2C1=O       EKVX   27.7 µM (inactive)
4  COc1ccc2c(c1)OC(c1cccnc1)C(c1ccccc1)C2=O (stereo not given)       EKVX  > 100 µM (inactive)
5  CCOc1cc(/C=C/C=C/c2ccc(N(C)C)cc2)[s+]c2ccccc12       EKVX   34.5 µM (inactive)

Incoming: What measured GI50 goes with `Cc1cc2oc(=O)[nH]c(=S)c2c(C)c1C` ?
Outgoing: 48.2 µM (inactive)

Incoming: What measured GI50 goes with C=C1C(=O)OC2/C=C(\C)C3OC3/C=C(/C(=O)OC)C(OC(C)=O)C(OC(=O)C(C)(O)C(C)OC(C)=O)C12 (stereo not given) ?
Outgoing: 10.5 µM (inactive)

====

tested on: SR; test: NCI tumour cell line growth inhibition, 48 h
Activity calls are given as the source filed them. No stated cut-off is given here; in the data, active = GI50 up to about 1.1 µM and inactive = higher.
readout_kind: GI50

> print(dat)
                                   compound   experimental.value
1  O=C(CC(=O)n1nc(-c2ccccc2)c(/N=N/c2ccccc2Cl)c1-c1ccccc1)Nc1ccc(Cl)cc1  > 100 µM (inactive)
2  NC(Cc1ccc2oc3cc(=O)c4ccccc4c-3nc2c1)C(=O)O (configuration not stated)   16.6 µM (inactive)
3  N#CC(NNC(=O)c1ccccc1O)c1ccc(O)cc1 (configuration not stated)    2.8 µM (inactive)
4  O=C1C(=O)N(c2ccc(Cl)c(Cl)c2)C(=O)C(=O)C1c1nc2ccccc2o1     30 µM (inactive)
5  CC(C)NC(=O)OCC[S+]([O-])c1c(Cl)c(Cl)nn1C (configuration not stated)   48.9 µM (inactive)

Incoming: What measured GI50 goes with `C/C(=N\N=C(N)N)c1sc(-c2nc(C)c(/C(C)=N/N=C(N)N)s2)nc1C` ?
Outgoing: > 45.6 µM (inactive)

Incoming: What measured GI50 goes with `O=C(/N=N/c1cc(Cl)ccc1Cl)NNc1cc(Cl)ccc1Cl` ?
Outgoing: 21.2 µM (inactive)

====

test system: SK-OV-3; experiment: NCI tumour cell line growth inhibition, 48 h
Activity calls are given as the source filed them. Rule as the data show it: active = GI50 up to about 1.1 µM and inactive = higher.
readout_kind: GI50

> print(dat)
                                   compound  experimental.value
1  CCCCCC(O)(CCCCC)CCCCCCCCC1=C(O)C(=O)c2ccccc2C1=O  15.6 µM (inactive)

Incoming: What measured GI50 goes with `CC1(C)CC[C@]2(C(=O)O)CC[C@]3(C)C(=CCC4=C5C[C@H](O)[C@H](O)[C@@](C)(CO)[C@@]5(C)CC[C@]43C)[C@@H]2C1` ?
Outgoing: > 100 µM (inactive)

Incoming: What measured GI50 goes with `N#CCCC(C#N)(C#N)CCC#N` ?
Outgoing: > 100 µM (inactive)

Incoming: What measured GI50 goes with CCC(C)(O)c1cnc(CC(C)C)c(=O)n1O (stereo unspecified) ?
Outgoing: 87.5 µM (inactive)

Incoming: What measured GI50 goes with CO/S(=N/S(=O)(=O)c1ccccc1)c1ccccc1[N+](=O)[O-] (stereo unspecified) ?
Outgoing: > 100 µM (inactive)

Incoming: What measured GI50 goes with `O=C(/C=C1\N=C(c2ccccc2)N(c2nc3c(Cl)cc(Cl)cc3s2)C1=O)/C=C/c1ccccc1` ?
Outgoing: > 100 µM (inactive)

Incoming: What measured GI50 goes with O=C1c2ccccc2C(=O)c2c(NCC(O)CO)ccc(NCC(O)CO)c21 (stereo unspecified) ?
Outgoing: 40.9 µM (inactive)

Incoming: What measured GI50 goes with `NNC(=O)CNc1cccc(Br)c1` ?
Outgoing: > 100 µM (inactive)

Incoming: What measured GI50 goes with O=C1CCCCC1S(=O)(=O)c1ccccc1 (stereo unspecified) ?
Outgoing: > 100 µM (inactive)

Incoming: What measured GI50 goes with `COc1ccc(NC(=S)NN=C(C)c2cccc(C(C)=NNC(=S)Nc3ccc(OC)cc3)n2)cc1` ?
Outgoing: 21.4 µM (inactive)

Incoming: What measured GI50 goes with `O=C(O)/C=C/c1ccc(OS(=O)(=O)O)cc1` ?
Outgoing: > 100 µM (inactive)
